- Tested on: Mycobacterium tuberculosis
- Test Summary: Ratio of MIC for Mycobacterium bovis BCG harboring pATB45::inhA to MIC for Mycobacterium bovis BCG harboring pATB45
- Format: functional, variant bovis BCG
Exercise: state measured Ratio for each of the compounds provided.
Numbers only.

For every record below, what is its Ratio?
1. C[C@H]1OC(=O)COC(=O)CCC(Cc2ccccc2)NC(=O)[C@H]1NC(=O)OC(C)(C)C (stereo in doubt; form 1)
2. C[C@H]1OC(=O)CCC(Cc2ccccc2)NC(=O)[C@@H](NC(=O)c2ncccc2O)[C@@H](C)OC1=O (some centres undefined)
3. C[C@H]1OC(=O)COC(=O)CCC(Cc2ccccc2)NC(=O)[C@H]1NC(=O)OC(C)(C)C (stereo in doubt; form 2)

2
1
1

Consider the compound shown here: NNC(=O)c1ccncc1 What is its recorded Ratio?
15.6
